Below: a set of entries, each annotated with reported MIC.
Test system: Staphylococcus aureus
Assay: Antibacterial activity against methicillin-resistant Staphylococcus aureus ATCC 33591 by agar method
Assay type: functional
readoutLabel: MIC

| compoundString | result |
| --- | --- |
| O=C(/C=C/c1ccc2ccccc2c1)c1cccnc1 | > 128 µg/mL |
| O=C(/C=C/c1cccnc1)c1ccc2ccccc2c1 | 8 µg/mL |
| O=C(/C=C/c1ccc2ccccc2c1)c1ccncc1 | > 128 µg/mL |

###

Tested on: Staphylococcus aureus
Assay: Antibacterial activity against methicillin-resistant Staphylococcus aureus ATCC 33591 by agar method
Type: functional
readoutLabel: log10 of MIC (log10 of the value in µg/mL)

| compoundString | readoutLabel | recordedNumber |
| --- | --- | --- |
| O=C(/C=C/c1ccc2c(C(F)(F)F)cccc2n1)c1cccnc1 | log10 of MIC | 0.30 |
| O=C(/C=C/c1ccccn1)c1ccc2ccc(C(F)(F)F)cc2n1 | log10 of MIC | 0.30 |
| O=C(/C=C/c1ccc2ccccc2n1)c1ccncc1 | log10 of MIC | 1.51 |
| O=C(/C=C/c1cnc2ccccc2c1)c1ccncc1 | log10 of MIC | 0.90 |
| COCOc1ccc(C(=O)/C=C/c2ccc3ccccc3n2)cc1OCOC | log10 of MIC | 0.90 |
| O=C(/C=C/c1cnc2ccccc2c1)c1cccnc1 | log10 of MIC | 1.51 |
| C[n+]1cccc(C(=O)/C=C/c2ccc3ccc(C(F)(F)F)cc3n2)c1.[I-] | log10 of MIC | 1.51 |
| C[n+]1ccc(C(=O)/C=C/c2ccc3ccccc3c2)cc1.[I-] | log10 of MIC | 1.81 |
| O=C(/C=C/c1ccc2ccccc2n1)c1ccc(O)c(O)c1 | log10 of MIC | 1.51 |
| O=C(/C=C/c1ccc2ccc(C(F)(F)F)cc2n1)c1ccncc1 | log10 of MIC | 0.30 |
| O=C(/C=C/c1ccc2ccc(C(F)(F)F)cc2n1)c1ccc(O)c(O)c1 | log10 of MIC | 1.51 |
| O=C(/C=C/c1ccc2c(C(F)(F)F)cccc2n1)c1ccncc1 | log10 of MIC | 0.00 |
| O=C(/C=C/c1ccc2ccccc2n1)c1cccnc1 | log10 of MIC | 0.30 |
| O=C(/C=C/c1ccc2ccc(C(F)(F)F)cc2n1)c1ccccn1 | log10 of MIC | 0.30 |
| O=C(/C=C/c1ccc2ccc(C(F)(F)F)cc2n1)c1cccnc1 | log10 of MIC | 0.00 |
| O=C(/C=C/c1ccccn1)c1ccc2ccccc2c1 | log10 of MIC | 0.00 |
| O=C(/C=C/c1ccncc1)c1ccc2ccc(C(F)(F)F)cc2n1 | log10 of MIC | 1.20 |

###

System: Enterobacter cloacae
Assay: Synergistic antibacterial activity against carbapenem-resistant Enterobacter cloacae D01 mcr-1 negative isolate assessed as fractional inhibitory concentration index in presence of colistin by checkerboard assay
Type: functional
readoutLabel: fractional inhibitory concentration index (FICI)

| compoundString | result |
| --- | --- |
| O=C(/C=C/c1ccc2ccccc2n1)c1cccnc1 | 0.07 |
| O=C(/C=C/c1ccccn1)c1ccc2ccccc2c1 | 0.023 |
| O=C(/C=C/c1ccc2ccccc2n1)c1ccccn1 | 0.012 |
| O=C(/C=C/c1ccc2ccc(C(F)(F)F)cc2n1)c1ccncc1 | 0.008 |

###

Below: a set of entries, each annotated with reported log10(MIC).
System: Staphylococcus epidermidis
Experiment: Antibacterial activity against methicillin-resistant Staphylococcus epidermidis 16-5 by agar method
Assay type: functional
readoutLabel: log10(MIC) (log10 of the value in µg/mL)

| molecule | targetOrSystem | readoutLabel | recordedNumber |
| --- | --- | --- | --- |
| O=C(/C=C/c1cnc2ccccc2c1)c1ccccn1 | Staphylococcus epidermidis | log10(MIC) | 0.90 |
| O=C(/C=C/c1ccc2ccc(C(F)(F)F)cc2n1)c1ccncc1 [PFK-158] | Staphylococcus epidermidis | log10(MIC) | 0.30 |
| O=C(/C=C/c1ccc2ccc(C(F)(F)F)cc2n1)c1ccc(O)c(O)c1 | Staphylococcus epidermidis | log10(MIC) | 1.20 |
| O=C(/C=C/c1ccc2ccccc2n1)c1ccccc1 | Staphylococcus epidermidis | log10(MIC) | 0.60 |
| O=C(/C=C/c1ccc2ccccc2n1)c1ccncc1 | Staphylococcus epidermidis | log10(MIC) | 1.51 |
| COCOc1ccc(C(=O)/C=C/c2ccc3ccccc3n2)cc1OCOC | Staphylococcus epidermidis | log10(MIC) | 0.90 |
| O=C(/C=C/c1ccncc1)c1ccc2ccccc2c1 | Staphylococcus epidermidis | log10(MIC) | 0.90 |
| O=C(/C=C/c1cnc2ccccc2c1)c1ccncc1 | Staphylococcus epidermidis | log10(MIC) | 0.90 |
| O=C(/C=C/c1ccc2ccccc2n1)c1ccc(O)c(O)c1 | Staphylococcus epidermidis | log10(MIC) | 1.51 |
| O=C(/C=C/c1ccc2ncccc2c1)c1cccnc1 | Staphylococcus epidermidis | log10(MIC) | 0.90 |
| O=C(/C=C/c1ccc2ncccc2c1)c1ccncc1 | Staphylococcus epidermidis | log10(MIC) | 1.20 |
| C[n+]1ccc(C(=O)/C=C/c2ccc3ccccc3c2)cc1.[I-] | Staphylococcus epidermidis | log10(MIC) | 2.11 |
| O=C(/C=C/c1cccnc1)c1ccc2ccccc2c1 | Staphylococcus epidermidis | log10(MIC) | 1.20 |
| O=C(/C=C/c1ccc2ccccc2n1)c1ccccn1 | Staphylococcus epidermidis | log10(MIC) | 0.00 |
| O=C(/C=C/c1cnc2ccccc2c1)c1cccnc1 | Staphylococcus epidermidis | log10(MIC) | 1.51 |

###

Tested on: Staphylococcus aureus
Assay: Antibacterial activity against methicillin-resistant Staphylococcus aureus ATCC 33591 by agar method
Type: functional
Sorting guide: entries reporting MIC beneath 8 mg/L go in the satisfied pile, the rest go in the not satisfied pile.

| compoundString | group |
| --- | --- |
| O=C(/C=C/c1ccc2ccccc2n1)c1ccccc1 | satisfied |
| O=C(/C=C/c1cccnc1)c1ccc2ccc(C(F)(F)F)cc2n1 | not satisfied |
| O=C(/C=C/c1ccc2c(C(F)(F)F)cccc2n1)c1ccccn1 | satisfied |
| C[C@H]1COc2c(N3CCN(C)CC3)c(F)cc3c(=O)c(C(=O)O)cn1c23.C[C@H]1COc2c(N3CCN(C)CC3)c(F)cc3c(=O)c(C(=O)O)cn1c23.O | satisfied |
| C[n+]1cccc(/C=C/C(=O)c2ccc3ccccc3c2)c1.[I-] | not satisfied |
| O=C(/C=C/c1ccc2ncccc2c1)c1cccnc1 | not satisfied |
| O=C(/C=C/c1ccncc1)c1ccc2ccccc2c1 | satisfied |
| O=C(/C=C/c1ccc2ccccc2n1)c1ccccn1 | satisfied |

###

Test system: Staphylococcus epidermidis
Experiment: Antibacterial activity against methicillin-resistant Staphylococcus epidermidis 16-5 by agar method
Format: functional

| compoundString | targetOrSystem | MIC |
| --- | --- | --- |
| C[n+]1cccc(C(=O)/C=C/c2ccc3ccccc3c2)c1.[I-] | Staphylococcus epidermidis | > 128 µg/mL |
| O=C(/C=C/c1ccc2ccccc2c1)c1cccnc1 | Staphylococcus epidermidis | > 128 µg/mL |
| O=C(/C=C/c1ccc2ccccc2n1)c1ccc2c(c1)OCO2 | Staphylococcus epidermidis | > 128 µg/mL |
| COCOc1ccc(C(=O)/C=C/c2ccc3ccc(C(F)(F)F)cc3n2)cc1OCOC | Staphylococcus epidermidis | > 64 µg/mL |

###

Below: a set of entries, each annotated with reported MIC.
System: Staphylococcus aureus
Assay: Antibacterial activity against methicillin-resistant Staphylococcus aureus ATCC 33591 by agar method
Format: functional

| compoundString | MIC |
| --- | --- |
| O=C(/C=C/c1ccc2ccccc2c1)c1ccccn1 | > 128 µg/mL |
| C[n+]1cccc(C(=O)/C=C/c2ccc3ccccc3c2)c1.[I-] | > 128 µg/mL |
| COCOc1ccc(C(=O)/C=C/c2ccc3ccc(C(F)(F)F)cc3n2)cc1OCOC | > 64 µg/mL |
| O=C(/C=C/c1ccc2ccc(C(F)(F)F)cc2n1)c1ccccc1 | > 128 µg/mL |
| O=C(/C=C/c1ccc2ccc(C(F)(F)F)cc2n1)c1ccc2c(c1)OCO2 | > 128 µg/mL |
| O=C(/C=C/c1ccc2ccccc2n1)c1ccc2c(c1)OCO2 | > 128 µg/mL |

###

Test system: Staphylococcus epidermidis
Assay: Antibacterial activity against methicillin-resistant Staphylococcus epidermidis 16-5 by agar method
Format: functional

| compoundString | MIC |
| --- | --- |
| O=C(/C=C/c1cccnc1)c1ccc2ccc(C(F)(F)F)cc2n1 | > 32 µg/mL |
| O=C(/C=C/c1ccncc1)c1ccc2ccc(C(F)(F)F)cc2n1 | > 32 µg/mL |
| O=C(/C=C/c1ccc2ccc(C(F)(F)F)cc2n1)c1ccccc1 | > 128 µg/mL |
| O=C(/C=C/c1ccc2ccc(C(F)(F)F)cc2n1)c1ccc2c(c1)OCO2 | > 128 µg/mL |
| O=C(/C=C/c1ccc2ccccc2c1)c1ccncc1 | > 128 µg/mL |

Data provenance is ChEMBL document CHEMBL4814028.
